Hello, the source for this data is patent US20090035322A1, in case you need it.

test-system: T1, mutant human CD20 #3 (A170S, P172S) (human, UniProt P11836 1-297)
T1 construct: Stably expressed on MG87 cells
T1 chain: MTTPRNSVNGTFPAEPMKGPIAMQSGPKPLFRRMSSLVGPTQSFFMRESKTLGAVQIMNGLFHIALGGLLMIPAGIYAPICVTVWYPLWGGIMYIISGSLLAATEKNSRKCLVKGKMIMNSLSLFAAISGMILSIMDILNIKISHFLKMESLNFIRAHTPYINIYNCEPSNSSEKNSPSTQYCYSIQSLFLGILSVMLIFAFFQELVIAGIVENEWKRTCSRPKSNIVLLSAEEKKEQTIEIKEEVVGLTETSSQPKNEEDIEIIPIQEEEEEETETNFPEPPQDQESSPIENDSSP
experiment-description: FACS, mutant-hCD20 MG87 cells; 100%=best antibody

# binder, measurement-units, Percent of Binding to Mutant Human CD20
records = [
    ("6F6-1 (antibody, V domains shown, Fully human IgG, constant region not specified; also called 6F6-1N) VH: AVQLVESGGGLVQPGRSLRLSCAASGFTFRDYAMHWVRQGPGKGLEWVSGISWNTDYIGYADSVKGRFTISRDNAKNSLYLQMNSLRPEDTALYYCAKDARYGRDNYYGMDVWGQGTTVTVSS VL: EIVMTQSPATLSVSPGERATLSCRASQSVSHNLAWYQQKPGQAPRLLIYGAYTRATGIPDRFSGTGSGTEFTLTISSLQSEDFAVFYCQQYNNWPLTFGGGTKVEIK", "%", 100),
    ("3B9-10 (antibody, V domains shown, Fully human IgG, constant region not specified; also called 3B9-10N) VH: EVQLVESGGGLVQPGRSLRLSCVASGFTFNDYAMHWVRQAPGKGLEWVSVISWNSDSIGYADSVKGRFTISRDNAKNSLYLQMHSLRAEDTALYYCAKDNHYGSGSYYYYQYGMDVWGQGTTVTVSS VL: EIVMTQSPATLSVSPGERATLSCRASQSVSSNLAWYQQKPGQAPRLLIYGTSTRATGIPARFSGSGSGTEFTLTISSLQSEDFAVYYCQQYNNWPLTFGGGTKVEIK", "%", 67),
    ("2C11-4 (antibody, V domains shown, Fully human IgG, constant region not specified; also called 2C11-4N) VH: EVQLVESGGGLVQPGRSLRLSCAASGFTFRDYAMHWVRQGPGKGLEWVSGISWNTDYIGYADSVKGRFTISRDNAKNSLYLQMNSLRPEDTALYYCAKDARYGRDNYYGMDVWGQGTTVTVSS VL: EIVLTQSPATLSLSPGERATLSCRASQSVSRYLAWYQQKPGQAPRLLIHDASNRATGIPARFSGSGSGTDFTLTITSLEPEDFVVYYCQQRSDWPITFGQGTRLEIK", "%", 11),
    ("6B9-4 (antibody, V domains shown, Fully human IgG, constant region not specified; also called 6B9-4N) VH: EEQLVESGGDLVQPGRSLRLSCAASGFTFHDYTMHWVRQAPGKGLEWVSGISWNSGSIGYADSVKGRFTISRDNAKNSLYLQMNSLRIEDTALYYCAKDPSYGSGSYYYYYGMDVWGQGTTVTVSS VL: EIVLTQSPATLSLSPGERATLSCRASQSVSSYLVWYQQRPGQAPRLLIYEASNRATGIPARFSGSGSGTDFTLTISSLESEDFAVYYCQQRSNWPLTFGGGTKVEIK", "%", 64),
    ("8G6-5 (antibody, V domains shown, Fully human IgG, constant region not specified; also called 8G6-5N) VH: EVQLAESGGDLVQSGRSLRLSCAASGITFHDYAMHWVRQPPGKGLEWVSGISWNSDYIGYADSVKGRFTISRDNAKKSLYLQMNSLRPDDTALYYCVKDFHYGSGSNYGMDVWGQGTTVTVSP VL: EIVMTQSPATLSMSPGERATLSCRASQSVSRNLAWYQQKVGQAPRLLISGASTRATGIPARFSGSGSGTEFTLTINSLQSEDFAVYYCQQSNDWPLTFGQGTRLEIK", "%", 65),
]
